Target: catalytically active fragment of SIRT3 (Homo sapiens, UniProt Q9NTG7)
Construct: the catalytically active fragment of SIRT3
Sequence (Q9NTG7 118-380 limits assumed): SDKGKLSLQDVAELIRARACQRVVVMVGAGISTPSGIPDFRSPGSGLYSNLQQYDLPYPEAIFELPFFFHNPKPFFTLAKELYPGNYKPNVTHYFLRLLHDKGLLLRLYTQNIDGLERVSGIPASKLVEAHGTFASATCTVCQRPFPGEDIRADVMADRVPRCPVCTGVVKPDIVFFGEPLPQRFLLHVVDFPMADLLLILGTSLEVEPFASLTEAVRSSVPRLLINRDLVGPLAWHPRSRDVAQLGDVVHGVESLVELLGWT
Experiment: Fluor-de-Lys biochemical sirtuin deacetylation assay, SIRT3 counter-screen
Settings: 10 μM counter-screen

RECORD SMILES: CN(c1ccc(Cl)cc1)S(=O)(=O)c1cccc(C(=O)Nc2ccc(O)cn2)c1
SIRT3 inhibition: minimal SIRT3 inhibition
//
RECORD SMILES: CC(=O)c1ccc(N(C)S(=O)(=O)c2cccc(C(=O)Nc3ccc(C#N)cc3)c2)cc1
SIRT3 inhibition: minimal SIRT3 inhibition
//
RECORD SMILES: O=C(Nc1ccc(Cl)cn1)c1cccc(S(=O)(=O)Nc2ccc(Cl)cn2)c1
SIRT3 inhibition: minimal SIRT3 inhibition

====

Target: SIRT2 (Homo sapiens)
Construct: recombinant active enzymes SIRT1, SIRT2, and the catalytically active fragment of SIRT3
Assay: Fluor-de-Lys biochemical sirtuin deacetylation assay, SIRT2
Conditions: 10 μM
Structures can show the parent of a compound that is named as a salt.
MEASUREMENT NAME: inhibition at 10 µM (%)
Write down the numeric answer in % and omit the unit.

Completed entries (count: 2):
COMPOUND: C[C@@H](Oc1cccc(C(=O)Nc2ccc(C#N)cc2)c1)c1ccc(F)cc1 [Compound 216l]
SYSTEM: SIRT2 (Homo sapiens)
READOUT UNIT: %
inhibition at 10 µM: 88
//
COMPOUND: CN(C(=O)c1cccc(S(=O)(=O)N(C)c2ccc(Cl)cc2)c1)c1ccc(C#N)cc1F [Compound 203Ac]
SYSTEM: SIRT2 (Homo sapiens)
READOUT UNIT: %
inhibition at 10 µM: 15

Input C[C@H](N)c1ccc(N(C)S(=O)(=O)c2cccc(C(=O)Nc3ccc(C#N)cc3)c2)cc1 [Compound 203Au, hydrochloride] . Output inhibition at 10 µM: 39

Input N/C(=N/c1cccc([N+](=O)[O-])c1)c1cccc(S(=O)(=O)N2CCCCCC2)c1 [Compound 234e] . Output inhibition at 10 µM: 27

Input N#Cc1ccc(NC(=O)c2cccc(OCc3cccc(F)c3)c2)cc1 [Compound 216Ad] . Output inhibition at 10 µM: 58

Input CC(=O)Nc1cccc(NC(=O)c2cccc(S(=O)(=O)N3CCCCCC3)c2)c1 [Compound 203k] . Output inhibition at 10 µM: 59

Input C[C@H](Oc1cncc(C(=O)Nc2ccc(C#N)cc2)c1)c1ccc(F)cc1 [Compound 216s] . Output inhibition at 10 µM: 27

Input CC(Oc1cccc(C(=O)Nc2ccc(C#N)cc2)c1)c1ccc(C2COC2)cc1 (centres unmarked) [Compound 216Ah] . Output inhibition at 10 µM: 41

====

Target: SIRT2 (Homo sapiens, UniProt Q8IXJ6)
Construct: recombinant active enzymes SIRT1, SIRT2, and the catalytically active fragment of SIRT3
Sequence (Q8IXJ6 1-389): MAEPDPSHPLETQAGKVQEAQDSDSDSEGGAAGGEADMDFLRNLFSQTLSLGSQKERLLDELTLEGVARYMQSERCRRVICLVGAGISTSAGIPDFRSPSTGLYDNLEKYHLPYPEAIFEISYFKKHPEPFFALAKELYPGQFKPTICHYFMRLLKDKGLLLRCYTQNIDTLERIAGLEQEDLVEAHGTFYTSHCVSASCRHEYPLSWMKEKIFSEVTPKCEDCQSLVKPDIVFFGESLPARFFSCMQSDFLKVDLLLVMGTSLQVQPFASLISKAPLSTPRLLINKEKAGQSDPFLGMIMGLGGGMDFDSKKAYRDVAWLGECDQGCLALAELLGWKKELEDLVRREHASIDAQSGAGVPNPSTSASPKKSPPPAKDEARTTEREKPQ
Test: Fluor-de-Lys biochemical sirtuin deacetylation assay, SIRT2
Conditions: 10 μM
Where a name gives a salt, the structure may show the parent alone.
MEASUREMENT NAME: inhibition at 10 µM (%)
Write down the numeric answer in % and omit the unit.

Completed entries (count: 6):
COMPOUND: Cc1cc(Cl)ccc1NC(=O)c1cccc(S(=O)(=O)N(C)c2ccc(Br)cc2)c1 [Compound 203n]
READOUT VALUE: 18
--
COMPOUND: CCN(CC)CCOc1cc(OCc2ccc(C#N)cc2)cc(C(=O)Nc2ccc(C#N)cc2)c1 [Compound 216y]
READOUT VALUE: 19
--
COMPOUND: N#Cc1ccc(/N=C(/N)c2cccc(OCc3cccc(F)c3F)c2)cc1 [Compound 234a, hydrochloride]
READOUT VALUE: 12
--
COMPOUND: COc1ccc(N(C)S(=O)(=O)c2cccc(/C(N)=N\c3ccc(C#N)cc3)c2)cc1 [Compound 234d, hydrochloride]
READOUT VALUE: 12
--
COMPOUND: N#Cc1ccc(NC(=O)c2cccc(CN(Cc3ccc(C#N)nc3)C3CC3)c2)cc1 [Compound 225g, hydrochloride]
READOUT VALUE: 44
--
COMPOUND: CN(c1ccc(Cl)cc1)S(=O)(=O)c1cccc(C(=O)Nc2ccc(Cl)cc2C#N)c1 [Compound 203x]
READOUT VALUE: 15

SIRT2 (Homo sapiens, UniProt Q8IXJ6) inhibition at 10 µM of CSc1ccc(CSc2cccc(C(=O)Nc3ccc(C#N)cn3)c2)cc1 [Compound 211a] is 63

SIRT2 (Homo sapiens, UniProt Q8IXJ6) inhibition at 10 µM of CN(C(=O)c1ccnc(S(=O)(=O)N(C)c2ccc(Cl)cc2)c1)c1ccc(S(C)(=O)=O)cc1 [Compound 203Ao] is 0

====

MEASUREMENT NAME: melting point

Completed entries (count: 5):
MOLECULE: CCCN(CCC)S(=O)(=O)c1cccc(C(=O)Nc2ccc(Br)cc2)c1 [Compound 203d]
melting point: 160 to 162 °C
//
MOLECULE: CN(C(=O)c1cccc(S(=O)(=O)N(C)c2ccc(Br)cc2)c1)c1ccc(Cl)cc1F [Compound 203p]
melting point: 127 to 128 °C
//
MOLECULE: CN(Cc1ccc(F)cc1)c1cccc(C(=O)Nc2ccc(C#N)cc2)c1 [Compound 221c]
melting point: 176 to 177 °C
//
MOLECULE: CN(c1ccc(Cl)cc1)S(=O)(=O)c1cccc(C(=O)Nc2ccc(Cl)cc2C#N)c1 [Compound 203x]
melting point: 157 to 158 °C
//
MOLECULE: CC(=O)Nc1cccc(NC(=O)c2cccc(S(=O)(=O)N3CCCCCC3)c2)c1 [Compound 203k]
melting point: 117 to 120 °C

Input CN(C(=O)c1cccc(S(=O)(=O)N(C)c2ccc([S+](C)[O-])cc2)c1)c1ccc(C#N)cc1F (stereo not shown) [Compound 203Al] . Output melting point: 148 to 150 °C

Input CN(c1ccc([S+](C)[O-])cc1)S(=O)(=O)c1cccc(C(=O)Nc2ccc(C#N)cc2F)c1 (stereo not shown) [Compound 203Aj] . Output melting point: 192 to 194 °C

Input N#Cc1ccc(NC(=O)c2cccc(OCc3ccc(OC(F)(F)F)cc3)c2)cc1 [Compound 216m] . Output melting point: 138 to 139 °C

Input CN(c1ccc([S+](C)[O-])cc1)S(=O)(=O)c1cc(C(=O)Nc2ccc(C#N)cc2)ccn1 (stereo not shown) [Compound 203Ar] . Output melting point: 243 to 245 °C (dec.)

Input CC(=O)c1ccc(COc2cncc(C(=O)Nc3ccc(C#N)cc3)c2)cc1 [Compound 216u] . Output melting point: 228 to 229 °C (dec.)

====

Catalogue of melting point values

Completed entries (count: 7):
COMPOUND: Cc1cc(F)ccc1N(C)C(=O)c1cccc(S(=O)(=O)N(C)c2ccc(Br)cc2)c1 [Compound 203m]
melting point: 104 to 105 °C
//
COMPOUND: CN(c1ccc(S(C)(=O)=O)cc1)S(=O)(=O)c1cccc(NC(=O)c2ccc(Br)cc2)c1 [Compound 207b]
melting point: 216 to 218 °C
//
COMPOUND: CN(c1ccc(Br)cc1)S(=O)(=O)c1cccc(C(=O)Nc2ccc(F)cc2F)c1 [Compound 203u]
melting point: 119 to 120 °C
//
COMPOUND: N#Cc1ccc(NC(=O)c2cccc(OCc3ccc(C(F)(F)F)cc3)c2)cc1 [Compound 216j]
melting point: 167 to 168 °C
//
COMPOUND: CC(O)c1ccc(C(C)Oc2cncc(C(=O)Nc3ccc(C#N)cc3)c2)cc1 (centres unmarked) [Compound 216Af]
melting point: 179 to 181 °C
//
COMPOUND: N#Cc1ccc(NC(=O)c2cccc(S(=O)(=O)N(c3ccc(Cl)cc3)C3CC3)c2)cc1 [Compound 203Av]
melting point: 180 to 182 °C
//
COMPOUND: CN(c1ccc(S(C)(=O)=O)cc1)S(=O)(=O)c1cccc(NC(=O)c2ccc(S(C)(=O)=O)cc2)c1 [Compound 207d]
melting point: 213 to 215 °C (dec.)

Now for another entry.
Input N#Cc1ccc(NC(=O)c2cccc(OCc3cc(F)cc(F)c3)c2)cc1 [Compound 216Ae] . Output melting point: 185 to 187 °C

The reported numbers originate from patent US9890117B2.
